assay comment: Inhibition of gamma secretase expressed in CHO cells expressing APP assessed as amyloid beta42 production
Format: cell-based

| molecule | IC50 |
| --- | --- |
| COc1nc(C(=O)NC2COc3ccc(Cl)c(C)c32)ccc1-n1cnc(C)c1 (racemic) | 234 nM |
| CCOc1cc(C)c(CN(C(=O)c2ccc(-n3cnc(C)c3)c(OC)c2)C2CC2)cc1C(C)C | 114 nM |
| COc1cc(C(=O)NC2COc3ccc(F)cc32)ccc1-n1cnc(C)c1 (racemic) | 1560 nM |
| COc1cc(C(=O)N[C@H]2COc3c(Cl)cccc32)ccc1-n1cnc(C)c1 | 1690 nM |
| COc1nc(C(=O)N[C@H]2COc3ccc(Cl)c(F)c32)ccc1-n1cnc(C)c1 | 188 nM |
| COc1cc(C(=O)NCc2cccc(C(F)(F)F)c2)ccc1-n1cnc(C)c1 | 659 nM |
| COc1cc(C(=O)N[C@H]2COc3ccc(Cl)cc32)ccc1-n1cnc(C)c1 | 521 nM |
| COc1cc(C(=O)NCc2cc(-c3cccc(Cl)c3)no2)ccc1-n1cnc(C)c1 | 330 nM |
| COc1cc(C(=O)N[C@@H](C)c2ccc(F)cc2)ccc1-n1cnc(C)c1 | 4400 nM |
| COc1nc(C(=O)N2CC[C@H](Oc3ccccc3C(F)(F)F)C2)ccc1-n1cnc(C)c1 | 208 nM |
| COc1nc(C(=O)N2CC[C@H](Oc3ccccc3C(F)(F)F)C2)cnc1-n1cnc(C)c1 | 535 nM |
| COc1cc(C(=O)N2CC[C@](O)(COc3ccccc3C(F)(F)F)C2)ccc1-n1cnc(C)c1 | 256 nM |
| COc1cc(C(=O)NCc2cnc(-c3ccccc3)s2)ccc1-n1cnc(C)c1 | 332 nM |
